Below, each of the binders is paired with its reported EC50, nM; GLP-1 Receptor value.
- Test target: GLP-1 receptor (UniProt P43220 24-463, limits assumed)
- Method summary: cell-based or functional assay
Where no end group is shown, it is not given here. [ ]: non-standard residue; d: D form. The star is where a group is joined. PEG 40 kDa = PEG (40 kDa) covalently attached to Cys; Myristoyl = CCCCCCCCCCCCCC(=O)*; Aib = CC(C)(N)C(=O)O

[Q] Name the recorded EC50, nM; GLP-1 Receptor for Y[Aib]EGTFTSDK(Myristoyl)SIYLDKQAA[Aib]EFVC(PEG 40 kDa)WLLAGGPSSGAPPPS-NH2 [mt-341] .
[A] 0.0636 nM

[Q] Can you look up the measured EC50, nM; GLP-1 Receptor of YXEGTFTSDYSIYLDKQAAXEFVNWLLAGGPSSGAPPPSKC (AIB at position 20 (Example 25); listed among the acylated glucagon peptides in paragraph 284; other non-standard residues as in the sequence listing) [mt-343] for me?
[A] 0.0224 nM

[Q] // EC50, nM; GLP-1 Receptor lookup, key: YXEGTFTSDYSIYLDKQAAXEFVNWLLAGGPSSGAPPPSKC (AIB at position 20 (Example 25); other non-standard residues as in the sequence listing) [mt-344]
[A] 0.089 nM

[Q] Fill blank: measured EC50, nM; GLP-1 Receptor of the binder Y[Aib]EGTFTSDYSIYLDKQAA[Aib]EFVC(PEG 40 kDa)WLLAGGPSSGAPPPSK(Myristoyl)-NH2 [mt-353] is ____.
[A] 0.0049 nM
